The values you see were collected from BigSolDB 2.1.

STATED_CONDITIONS: in ethyl acetate, 293.2 K
MEASURED_ATTRIBUTE: solubility (mole fraction)
Just the number.

# input I have this molecule here, O=c1c(-c2ccc(O)cc2)coc2cc(O[C@@H]3O[C@H](CO)[C@@H](O)[C@H](O)[C@H]3O)ccc12 , and I need its recorded solubility (mole fraction).
# output 7.88e-06

====

STATED_CONDITIONS: in methanol, 323.2 K
MEASURED_ATTRIBUTE: solubility (mole fraction)
# print the numeric value only

# input Could you tell me which solubility (mole fraction) is on file for O=c1c(-c2ccc(O)cc2)coc2cc(O[C@@H]3O[C@H](CO)[C@@H](O)[C@H](O)[C@H]3O)ccc12 ?
# output 0.000794

====

STATED_CONDITIONS: in ethyl acetate, 283.2 K
MEASURED_ATTRIBUTE: solubility (mole fraction)

# input # solubility (mole fraction) lookup, item O=c1c(-c2ccc(O)cc2)coc2cc(O[C@@H]3O[C@H](CO)[C@@H](O)[C@H](O)[C@H]3O)ccc12
# output 5.38e-06

====

STATED_CONDITIONS: in chloroform, 303.2 K
MEASURED_ATTRIBUTE: solubility (mole fraction)

# input Item under review: O=c1c(-c2ccc(O)cc2)coc2cc(O[C@@H]3O[C@H](CO)[C@@H](O)[C@H](O)[C@H]3O)ccc12 . Reported solubility (mole fraction)?
# output 1.6e-06

====

STATED_CONDITIONS: in ethanol, 283.2 K
MEASURED_ATTRIBUTE: solubility (mole fraction)
Just the number, please.

# input Would you mind telling me what solubility (mole fraction) value was observed for O=c1c(-c2ccc(O)cc2)coc2cc(O[C@@H]3O[C@H](CO)[C@@H](O)[C@H](O)[C@H]3O)ccc12 ?
# output 0.000291

====

STATED_CONDITIONS: in n-butanol, 313.2 K
MEASURED_ATTRIBUTE: solubility (mole fraction)
Provide a numeric answer; units are not to be included.

# input Tell me the measured solubility (mole fraction) of O=c1c(-c2ccc(O)cc2)coc2cc(O[C@@H]3O[C@H](CO)[C@@H](O)[C@H](O)[C@H]3O)ccc12 , please.
# output 0.000353

====

STATED_CONDITIONS: in ethyl acetate, 313.2 K
MEASURED_ATTRIBUTE: solubility (mole fraction)
Give a plain numeric answer without units written out.

# input // solubility (mole fraction) lookup, key: O=c1c(-c2ccc(O)cc2)coc2cc(O[C@@H]3O[C@H](CO)[C@@H](O)[C@H](O)[C@H]3O)ccc12
# output 4.24e-05

====

STATED_CONDITIONS: in chloroform, 293.2 K
MEASURED_ATTRIBUTE: solubility (mole fraction)
Keep it simple and answer with nothing but the number.

# input Need solubility (mole fraction), item O=c1c(-c2ccc(O)cc2)coc2cc(O[C@@H]3O[C@H](CO)[C@@H](O)[C@H](O)[C@H]3O)ccc12
# output 8.76e-07

====

STATED_CONDITIONS: in chloroform, 323.2 K
MEASURED_ATTRIBUTE: solubility (mole fraction)
Just the number, please, no unit after it.

# input Query (compound): O=c1c(-c2ccc(O)cc2)coc2cc(O[C@@H]3O[C@H](CO)[C@@H](O)[C@H](O)[C@H]3O)ccc12 ; field requested: solubility (mole fraction)
# output 3.2e-06
